This collection of values is drawn from PubChem BioAssay (Tox21).

Biological target: Estrogen receptor (Homo sapiens)
Assay: qHTS assay to identify small molecule agonists of the estrogen receptor alpha (ER-alpha) signaling pathway (AID 743075);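 note: HEK293 GripTite cells with ER-alpha and UAS-driven beta-lactamase reporter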
Conditions: HEK293 ER-alpha-UAS-bla, beta-lactamase FRET ratio, 18 h; series mostly up to 70.1 µM
Results filed as inconclusive are left out. Active and inactive are the calls of the source. Calls come from the whole dose curve.
Write down one outcome, taken from active, inactive

Q: Called result for CCCCc1c(C)nc(NCC)nc1OS(=O)(=O)N(C)C
Result: inactive

Q: Called result for Nc1nc(=S)[nH][nH]1
Result: inactive

Q: Called result for Brc1ccc(Oc2ccccc2)cc1
Result: inactive

Q: Called result for CCCN(CCCl)c1c([N+](=O)[O-])cc(C(F)(F)F)cc1[N+](=O)[O-]
Result: inactive

Q: Called result for COP(=S)(Oc1cc(Cl)c(Br)cc1Cl)c1ccccc1 (stereo not drawn)
Result: inactive

Q: Called result for CN1[C@@H]2CC[C@H]1CC(OC(=O)c1cc(Cl)cc(Cl)c1)C2 (stereo partly drawn)
Result: inactive

Q: Called result for C=CCC1([C@H](C)CCC)C(=O)NC(=O)NC1=O
Result: inactive

Q: Called result for Cl/C=C\Cl
Result: inactive

Q: Called result for COC(=O)c1cncn1C(C)c1ccccc1 (stereo not drawn)
Result: inactive

Q: Called result for C=CCCl
Result: active

Q: Called result for CC1CC(CC2CCC(N)C(C)C2)CCC1N (stereo not drawn)
Result: inactive

Q: Called result for COc1ccc(-c2ccccc2)cc1NNC(=O)OC(C)C
Result: inactive

Q: Called result for Cc1c(F)c(F)c(COC(=O)C2C(/C=C(\Cl)C(F)(F)F)C2(C)C)c(F)c1F (stereo not drawn)
Result: inactive

Q: Called result for C=CC(=O)NCNC(=O)C=C
Result: inactive

Q: Called result for O=C(Nc1ccccc1)Nc1ccnc(Cl)c1
Result: inactive

Q: Called result for COc1c(C(C)(C)C)cc([N+](=O)[O-])c(C)c1[N+](=O)[O-]
Result: active

Q: Called result for OC(c1ccc(Cl)cc1)(c1ccc(Cl)cc1)c1cccnc1
Result: inactive

Q: Called result for CC(=O)C(C)(C)C
Result: inactive

Q: Called result for CC(=O)NC1CCSC1=O (stereo not drawn)
Result: inactive

Q: Called result for [O-][Cl+]O
Result: inactive

Q: Called result for O=[N+]([O-])c1ccccc1CCl
Result: inactive

Q: Called result for CNC(C)Cc1ccccc1OC (stereo not drawn)
Result: inactive

Q: Called result for O=C1NCN(c2ccccc2)C12CCN(CCCOc1ccc(F)cc1)CC2
Result: inactive

====

Experiment: qHTS assay for small molecules that induce genotoxicity in human embryonic kidney cells expressing luciferase-tagged ATAD5 - cell viability (AID 651634); note: nearly all actives have a fitted effect of over 25% in size
Conditions: HEK293T ATAD5-luc cells viability, CellTiter-Fluor, 15.5 h; series mostly up to 83.3 µM
Inconclusive results are not listed. Activity calls are given as the source filed them. Calls follow the shape of the full dose curve.
Write down one outcome, taken from 1.0 (active), 0.0 (inactive)

Q: Called result for COP(=S)(OC)Oc1cc(Cl)c(I)cc1Cl
Result: 0.0

Q: Called result for O=S(=O)(O)C(F)(F)C(F)(F)C(F)(F)C(F)(F)F
Result: 0.0

Q: Called result for CC(C)N(C(=O)COc1nnc(C(F)(F)F)s1)c1ccc(F)cc1
Result: 0.0

Q: Called result for CCN(C)N=O
Result: 0.0

Q: Called result for CCCN(CCCl)c1c([N+](=O)[O-])cc(C(F)(F)F)cc1[N+](=O)[O-]
Result: 0.0

Q: Called result for CCOP(=O)(OCC)Oc1ccc([N+](=O)[O-])cc1
Result: 0.0

Q: Called result for Brc1ccc(Oc2ccccc2)cc1
Result: 0.0

Q: Called result for O=C(N[C@H](c1ccccc1)[C@@H]1CN2CCC1CC2)c1c(Cl)ccc(C(F)(F)F)c1Cl
Result: 0.0

Q: Called result for CN1C[C@H](CNC(=O)OCc2ccccc2)C[C@@H]2c3cccc4c3c(cn4C)C[C@H]21
Result: 0.0

Q: Called result for O=C(CBr)OCc1ccccc1
Result: 0.0

Q: Called result for CCCCN(N=O)C(=N)N[N+](=O)[O-]
Result: 0.0

Q: Called result for C=CC(=O)OCC(C)O (configuration not stated)
Result: 0.0

Q: Called result for Cc1ccc(N)cc1C
Result: 0.0

Q: Called result for II
Result: 0.0

Q: Called result for c1cc2ccc3cccc4ccc(c1)c2c34
Result: 0.0

Q: Called result for Clc1ccc(C2(Cn3cncn3)CC(Br)CO2)c(Cl)c1 (configuration not stated)
Result: 0.0

Q: Called result for ClCCCCBr
Result: 0.0

Q: Called result for N#C/C(N)=C(/N)C#N
Result: 0.0

Q: Called result for COC(=O)c1cncn1C(C)c1ccccc1 (configuration not stated)
Result: 0.0

Q: Called result for COCCOCCO
Result: 0.0

Q: Called result for CC(C)N(CCC(C(N)=O)(c1ccccc1)c1ccccn1)C(C)C (configuration not stated)
Result: 0.0

Q: Called result for C=CCN1CC[C@]23c4c5ccc(O)c4O[C@H]2C(=O)CC[C@@]3(O)[C@H]1C5
Result: 0.0

Q: Called result for OCCCBr
Result: 0.0

Q: Called result for C/C=C/C=O
Result: 0.0

Q: Called result for CC(=O)c1cc2c(cc1C)C(C)(C)C(C)CC2(C)C (configuration not stated)
Result: 0.0

Q: Called result for O=C1C(Cl)C(CCl)CN1c1cccc(C(F)(F)F)c1 (configuration not stated)
Result: 0.0

Q: Called result for N#CCC#N
Result: 0.0

Q: Called result for Nc1ccc(N=Nc2ccc(-c3ccc(N=Nc4c(S(=O)(=O)O)cc5cc(S(=O)(=O)O)c(N=Nc6ccccc6)c(O)c5c4N)cc3)cc2)c(N)c1
Result: 0.0

Q: Called result for CO/N=C(/C(=O)OC)c1ccccc1COc1ccccc1C
Result: 0.0

Q: Called result for CC(O)(CS(=O)(=O)c1ccc(F)cc1)C(=O)Nc1ccc(C#N)c(C(F)(F)F)c1 (configuration not stated)
Result: 0.0

Q: Called result for BrCCCCBr
Result: 0.0

Q: Called result for O=C(C(Cl)(Cl)Cl)C(Cl)(Cl)Cl
Result: 0.0

Q: Called result for O=NN1CCNCC1
Result: 0.0

Q: Called result for NNC(=O)c1cccnc1
Result: 0.0

Q: Called result for [O-][Cl+]O
Result: 0.0

Q: Called result for Oc1ccc(Cl)c(Cl)c1Cl
Result: 0.0

Q: Called result for COc1cc(CC(C)N)cc2c1OCO2 (configuration not stated)
Result: 0.0

Q: Called result for COP(=S)(Oc1cc(Cl)c(Br)cc1Cl)c1ccccc1 (configuration not stated)
Result: 0.0

Q: Called result for C=CC(=O)OC(C)(C)C
Result: 0.0

Q: Called result for CCOP(=S)(OCC)SCSCC
Result: 0.0

Q: Called result for COc1nn(CSP(=S)(OC)OC)c(=O)s1
Result: 0.0

Q: Called result for O=C(O)C(F)(F)C(F)(F)C(F)(F)C(F)(F)C(F)(F)C(F)(F)C(F)(F)C(F)(F)C(F)(F)C(F)(F)F
Result: 0.0

Q: Called result for O=NN1CCCCCC1
Result: 0.0

Q: Called result for CCCCC(CC)COP(=O)(Oc1ccccc1)Oc1ccccc1 (configuration not stated)
Result: 0.0

Q: Called result for CNP(=O)(OC)Oc1ccc(C(C)(C)C)cc1Cl (configuration not stated)
Result: 0.0

Q: Called result for CCCCc1c(C)nc(NCC)nc1OS(=O)(=O)N(C)C
Result: 0.0

Q: Called result for Clc1cccc(SC2CCNCC2)n1
Result: 0.0

Q: Called result for CCOc1ccc(C(C)(C)COCc2cccc(Oc3ccccc3)c2)cc1
Result: 0.0

Q: Called result for C[N+](C)(C)CCCl
Result: 0.0

Q: Called result for ClP(Cl)(Cl)(Cl)Cl
Result: 0.0

Q: Called result for C=CC(C)=O
Result: 0.0

Q: Called result for O=C(OC1CCCCC1)c1ccccc1C(=O)OC1CCCCC1
Result: 0.0

Q: Called result for O=S(=O)(Cl)c1ccccc1
Result: 0.0

Q: Called result for NS(=O)(=O)C(F)(F)C(F)(F)C(F)(F)C(F)(F)C(F)(F)C(F)(F)C(F)(F)C(F)(F)F
Result: 0.0

Q: Called result for ClCC(Br)CBr (configuration not stated)
Result: 0.0

Q: Called result for CCCC(=O)Cl
Result: 0.0

Q: Called result for O=C1C(=O)c2cccc3cccc1c23
Result: 1.0

====

Biological target: Aryl hydrocarbon receptor (Homo sapiens) (UniProt P35869)
Sequence (P35869 whole entry, looked up): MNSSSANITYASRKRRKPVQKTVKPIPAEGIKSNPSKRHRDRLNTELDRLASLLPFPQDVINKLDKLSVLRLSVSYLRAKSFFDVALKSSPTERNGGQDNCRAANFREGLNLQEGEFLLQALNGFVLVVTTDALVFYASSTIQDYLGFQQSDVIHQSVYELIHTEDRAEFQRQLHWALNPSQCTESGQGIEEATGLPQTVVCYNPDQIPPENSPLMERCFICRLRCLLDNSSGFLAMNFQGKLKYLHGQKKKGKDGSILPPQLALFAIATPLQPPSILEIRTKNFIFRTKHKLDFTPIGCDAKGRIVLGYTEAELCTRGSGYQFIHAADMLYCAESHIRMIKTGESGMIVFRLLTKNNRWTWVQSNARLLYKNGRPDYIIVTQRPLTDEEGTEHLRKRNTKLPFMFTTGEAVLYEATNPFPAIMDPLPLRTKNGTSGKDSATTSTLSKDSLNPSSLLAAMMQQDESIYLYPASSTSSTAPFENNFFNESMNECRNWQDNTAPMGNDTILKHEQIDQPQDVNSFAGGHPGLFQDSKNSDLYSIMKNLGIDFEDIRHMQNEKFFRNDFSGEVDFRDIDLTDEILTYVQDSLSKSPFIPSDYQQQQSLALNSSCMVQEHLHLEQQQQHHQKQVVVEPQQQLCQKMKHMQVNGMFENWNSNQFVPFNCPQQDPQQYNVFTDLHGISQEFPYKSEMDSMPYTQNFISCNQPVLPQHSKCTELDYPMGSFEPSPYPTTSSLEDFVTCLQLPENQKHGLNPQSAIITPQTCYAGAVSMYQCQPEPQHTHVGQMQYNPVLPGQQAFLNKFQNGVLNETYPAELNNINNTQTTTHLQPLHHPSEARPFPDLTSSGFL
Test: qHTS assay to identify small molecule that activate the aryl hydrocarbon receptor (AhR) signaling pathway (AID 743085);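 note: HG2L7.5c1 human HepG2 liver cells with stably integrated DRE-driven firefly reporter; nearly all actives have a fitted effect of over 15% in size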
Settings: HepG2 AhR-luc (HG2L7.5c1), luciferase, 24 h; series mostly up to 70.3 µM
Results filed as inconclusive are left out. Calls of active or inactive are those of the source. Calls follow the shape of the dose curve; as a rule, active = well fitted activation curve with a large enough effect in the repeat runs; inconclusive = weak or mixed curves; inactive = no such curve, though single readings can be large or run the other way.
observed_property: outcome

Please review the following examples before continuing.
# molecule, result
rows = [
    ("COC(C)(C)CCC[C@H](C)C/C=C/C(C)=C/C(=O)OC(C)C", "inactive"),
    ("O=C(NC(=O)c1c(F)cccc1F)Nc1cc(Cl)c(Oc2ncc(C(F)(F)F)cc2Cl)c(Cl)c1", "inactive"),
    ("C=CC(=O)OC", "inactive"),
    ("Clc1ccc(C(OCCN2CCCCC2)c2ccccc2)cc1 (stereo unspecified)", "inactive"),
    ("CCCCCC[N+](=O)[O-]", "inactive"),
]

We next turn to a different molecule, shown below.
Q: What value of outcome has been reported for the following molecule? CCCN(CCC)c1c([N+](=O)[O-])cc(S(C)(=O)=O)cc1[N+](=O)[O-]
Result: inactive
